Cited source: PubChem BioAssay AID1159580

Assay: chemical genetic growth profiling, strain panel (AID 1159580);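 also: tested at 20 µM; growth read once vehicle control cultures reached saturation at 30 °C; lower values mean less growth of the strain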
Details: S. cerevisiae deletion strains, growth OD, locus YLR113W, strain HOG1
Out of some 5,500 compounds screened, about 2,000 (36%) were called active. Roughly 18% stayed inconclusive and do not appear here. Rule as the data show it: active = normalized growth mostly below about 0.91 (no sharp cut-off); inconclusive = no clear call, values can overlap the other calls; inactive = mostly above about 0.92. Some of the results follow. Where a SMILES comes first, the peptide text is derived from it.
Assign a class; possible classes are active, inactive

Examples from the recorded data:
CC(=O)N[C@@H](CC(=O)O)C(=O)N[C@@H](CCC(=O)O)C(=O)O (Ac-Asp-Glu-OH) = inactive
Clc1ccccc1-c1csc(-c2cccnc2)n1 = active
NC(N)=NCCCCN=C(N)N = inactive

Now, please, on to the next molecule.
Tell me the assay call for COc1ccc(-c2cn3cc(C)ccc3n2)cc1 please. inactive

---

Test: chemical genetic growth profiling, strain panel (AID 1159580);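 also: tested at 20 µM; growth read once vehicle control cultures reached saturation at 30 °C; lower values mean less growth of the strain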
Conditions: S. cerevisiae deletion strains, growth OD, locus YJR066W, strain TOR1
The campaign covered roughly 5,500 compounds. About 2,000 (36%) were called active. Roughly 18% stayed inconclusive and do not appear here. Cut-off read from the data, not from the text of the source: active = normalized growth mostly below about 0.91 (no sharp cut-off); inconclusive = no clear call, values can overlap the other calls; inactive = mostly above about 0.92. Some of the results follow.
Could you please pick one outcome from this set? Yes (active), No (inactive)

Recorded results for 2 molecules are shown here.
O=C(Nc1cc(C(F)(F)F)cc(C(F)(F)F)c1)C(Cl)(Cl)Cl = No
CC(C)(C)C1=C(C#N)C(c2c(Cl)cccc2Cl)C(C#N)=C(N)O1 (stereo unspecified) = No

Tell me the recorded outcome of this test for NCCCCCC(=O)O . No

Can you look up the reported call for COc1ccc2c(c1)OCC(Cc1ccc(OC)c(O)c1)C2=O (stereo unspecified) for me? No

Recorded test call requested for CNC(=O)Sc1c(-c2ccc(Cl)cc2)nn(C(=O)NC)c1SC Yes

Give the logged outcome of this assay for the following molecule: C/C(=N/NC(=S)NCC(C)(C)C)c1cc(F)cc(Cl)c1O No

Recorded test outcome, item Nc1ccccc1C(=O)Nc1cc(C(F)(F)F)cc(C(F)(F)F)c1 No

Hey, what did the test say about CC(O)(P(=O)(O)O)P(=O)(O)O ? No

Outcome? CCC(=O)OC1[C@@H]2CC3=C4CC(=O)O[C@@H](c5ccoc5)[C@]4(C)CCC3[C@@](C)(C2=O)[C@@H](CC(=O)OC)C1(C)C (stereo partly specified) No

# fetch the recorded call for CCOC(=O)c1ccc(Oc2sccc2[N+](=O)[O-])cc1 here No

Field: outcome | Entry: COc1cc2c(cc1OC)C1(O)C(=O)c3ccc(O)c(C(=O)O)c3OC1CO2 (stereo unspecified) No

---

Assay: chemical genetic growth profiling, strain panel (AID 1159580);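 also: tested at 20 µM; growth read once vehicle control cultures reached saturation at 30 °C; lower values mean less growth of the strain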
Conditions: S. cerevisiae deletion strains, growth OD, locus YMR058W, strain fet3
Out of some 5,500 compounds screened, about 2,000 (36%) were called active. Not shown: some 18% with an inconclusive outcome. Rule as the data show it: active = normalized growth mostly below about 0.91 (no sharp cut-off); inconclusive = no clear call, values can overlap the other calls; inactive = mostly above about 0.92. The list shows a part of the results.
Reply using exactly one outcome from active, inactive

CC(C)/C(O)=C1/C(=O)O[C@@H](c2ccoc2)[C@]2(C)C(O)[C@@H](O)[C@@]34OC5(C)OC67CC(C)(C(O)[C@]6(O)[C@@H](O)[C@]3(O5)C12)[C@H](CC(=O)O)[C@]74C (stereo not given in full) = inactive
CCCCCCCCCCCCCC(=O)OC1C(C)C2(O)C(C=C(CO)CC3(O)C(=O)C(C)=CC32)C2C(C)(C)C12OC(C)=O (stereo not given) = inactive
CC(=O)N[C@@H](CCC(=O)O)C(=O)O = inactive

Called result for O=C(O)C1CCCNC1 (stereo not given) inactive

Please state the recorded outcome for this molecule: Clc1ccc(C(Cn2ccnc2)OCc2ccsc2Cl)c(Cl)c1 (stereo not given) active
